- System: P388
- PROTOCOL_TEXT: Compound was tested for growth inhibitory activity after 72 hr of continuous exposure against mouse leukemia P388
- Format: functional
- CONDITION_PARAMETERS: P388, 72 h
MEASUREMENT_KIND: GI50 (µg/mL)
Reply numerically in µg/mL, unit not repeated.

Input line: Quick check: GI50 on P388, item CC(=O)OCC1=C2[C@@H](O)C(=O)[C@@]3(C)[C@H]([C@H](OC(=O)c4ccccc4)[C@](O)(C[C@@H]1OC(=O)[C@H](O)[C@@H](NC(=O)OC(C)(C)C)c1ccccc1)C2(C)C)[C@]1(OC(C)=O)CO[C@@H]1C[C@@H]3O ?
Output line: 0.181

Input line: Quick check: GI50 on P388, item CC(=O)O[C@@]12CO[C@@H]1C[C@H](O)[C@@]1(C)C(=O)[C@H](O)C3=C(CC#N)[C@@H](OC(=O)[C@H](O)[C@@H](NC(=O)OC(C)(C)C)c4ccccc4)C[C@@](O)([C@@H](OC(=O)c4ccccc4)[C@H]21)C3(C)C ?
Output line: 0.00837

Input line: Quick check: GI50 on P388, item CC(=O)O[C@H]1C(=O)[C@@]2(C)[C@H]([C@H](OC(=O)c3ccccc3)[C@]3(O)C[C@H](OC(=O)[C@H](O)[C@@H](NC(=O)OC(C)(C)C)c4ccccc4)C(CN=[N+]=[N-])=C1C3(C)C)[C@]1(OC(C)=O)CO[C@@H]1C[C@@H]2O ?
Output line: 0.0401

Input line: Quick check: GI50 on P388, item CC(=O)O[C@@]12CO[C@@H]1C[C@H](O)[C@@]1(C)C(=O)[C@H](O)C3=C(C)[C@@H](OC(=O)[C@H](O)[C@@H](NC(=O)OC(C)(C)C)c4ccccc4)C[C@@](O)([C@@H](OC(=O)c4ccccc4)[C@H]21)C3(C)C.O.O.O ?
Output line: 0.00162

Input line: Quick check: GI50 on P388, item CC(=O)NCC1=C2[C@@H](OC(C)=O)C(=O)[C@@]3(C)[C@H]([C@H](OC(=O)c4ccccc4)[C@](O)(C[C@@H]1OC(=O)[C@H](O)[C@@H](NC(=O)OC(C)(C)C)c1ccccc1)C2(C)C)[C@]1(OC(C)=O)CO[C@@H]1C[C@@H]3O ?
Output line: 0.393

Input line: Quick check: GI50 on P388, item CCC1=C2[C@@H](OC(C)=O)C(=O)[C@@]3(C)[C@H]([C@H](OC(=O)c4ccccc4)[C@](O)(C[C@@H]1OC(=O)[C@H](O)[C@@H](NC(=O)OC(C)(C)C)c1ccccc1)C2(C)C)[C@]1(OC(C)=O)CO[C@@H]1C[C@@H]3O ?
Output line: 0.00745
